Where do the numbers come from? From the supplement of paper PMC6755084.

B1: F1*; the commonest letter at each place (parent)
chain: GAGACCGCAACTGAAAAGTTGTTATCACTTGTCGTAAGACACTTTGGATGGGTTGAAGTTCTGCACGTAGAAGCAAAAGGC

Variants of: B1
Assay: fraction ligated after 30 min (ligated reads / total reads); higher = more ligase activity
Conditions: with F1*sub RNA substrate (template-directed ligation), 42 °C
Property label: fraction ligated
Numbers only.

Solved cases below.
{"Mutation descriptor": "T29G A39T", "fraction ligated": 0.822}
{"Mutation descriptor": "G50A A56C", "fraction ligated": 0.0252}

Dear colleague, could you please provide fraction ligated for the variants listed below?
1. C28T A56C
2. T35A T49A
3. T45A A56T

1: 0.595; 2: 0.763; 3: 0.793
